Origin of the recorded values: patent US20250223303A1

- Test system: Escherichia coli ARLG 2829
- EXPERIMENT: MIC test of compounds in combination with antibiotics, Escherichia coli ARLG 2829
- SETTINGS: Meropenem + compound (8 μg/mL)
ASSAY METRIC: MIC of meropenem in combination with compound, Escherichia coli ARLG-2829 NDM-5, OXA-1 (µg/mL)
A number alone suffices; assume µg/mL.

// solved cases for MIC of meropenem in combination with compound, Escherichia coli ARLG-2829 NDM-5, OXA-1 follow
COMPOUND: CC(Sc1ccc2c(c1C(=O)O)OB(O)C1CC21)C1CC1 (single isomer, unassigned) [Compound 16-d]
VALUE: 0.5
//
COMPOUND: CC(Sc1ccc2c(c1C(=O)O)OB(O)C1CC21)C1CC1 (single isomer, unassigned) [Compound 16-a]
VALUE: 2
//
COMPOUND: O=C(O)c1c(SCCN2CCOCC2)ccc2c1OB(O)C1CC21 (single isomer, unassigned) [Compound 15-a]
VALUE: 16
//
COMPOUND: C[C@H](Sc1ccc2c(c1C(=O)O)OB(O)[C@@H]1C[C@H]21)[C@@H]1CCCO1
VALUE: 2
//
COMPOUND: C[C@@H](Sc1ccc2c(c1C(=O)O)OB(O)[C@H]1C[C@@H]21)[C@@H]1CCCO1
VALUE: 8

Param item = NC1COCC1Sc1ccc2c(c1C(=O)O)OB(O)C1CC21 (single isomer, unassigned) [Compound 10_P2] ; retrieve measured MIC of meropenem in combination with compound, Escherichia coli ARLG-2829 NDM-5, OXA-1. 0.25

Param item = NC1COCC1Sc1ccc2c(c1C(=O)O)OB(O)C1CC21 (single isomer, unassigned) [Compound 10_P1] ; retrieve measured MIC of meropenem in combination with compound, Escherichia coli ARLG-2829 NDM-5, OXA-1. 1
